Just for reference, paper PMC5419745 is where these values come from.

Target: T1, Hsa ETS-2 PNT (human, UniProt P15036 85-170)
T1 construct: pointed (PNT) domain of human ETS-2; also called globular pointed (PNT) domain from human ETS-2; PNT domain of ETS-2; source: expressed and purified as previously described (Dogan et al., 2015)
T1 sequence (looked up): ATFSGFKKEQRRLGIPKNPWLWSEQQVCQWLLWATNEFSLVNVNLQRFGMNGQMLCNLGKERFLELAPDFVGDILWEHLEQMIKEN
Assay: ITC; iTC200, 25°C, 20 mM sodium phosphate, pH 7.4, 150 mM NaCl; both partners dialysed against the same buffer
Conditions: both partners purified
endpointLabel: pKd
Recall that pKd is obtained by taking minus log10 of the concentration measured in molar.

// returns reported pKd for input GSISPSALQDLLRTLKSPSSPQQQQQVLNILKSNPQLMAAFIKQRTAKYV (domain or fragment, human, Gly-Ser left at the N-terminus from the expression construct; NCBD domain of human CREBBP; pRSET vector; also called human CREBBP NCBD) [Hsa CREBBP NCBD] 6.12
